# Experimental Target: T1, Extracellular domain (ECD) of the canine IL-4 receptor alpha-V5 epitope-AviTag-His Tag (canine)
# T1 construct: monomeric form isolated by size exclusion; also called canine IL-4RA-V5-Avi-His; canine IL-4RA
# T1 chain: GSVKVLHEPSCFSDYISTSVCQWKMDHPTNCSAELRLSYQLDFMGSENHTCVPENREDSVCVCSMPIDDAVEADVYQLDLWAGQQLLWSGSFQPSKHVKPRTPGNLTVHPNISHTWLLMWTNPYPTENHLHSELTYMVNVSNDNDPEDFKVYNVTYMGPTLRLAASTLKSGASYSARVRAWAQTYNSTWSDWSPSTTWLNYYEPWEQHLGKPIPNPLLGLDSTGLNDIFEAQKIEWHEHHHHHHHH
# Measurement Protocol: SPR, Fab-SASA captured on BSA;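 note: biacore T200 SPR, Fab-SASA variants from E. coli conditioned medium captured on BSA-coated CM5 chip, canine IL-4RA injected 120 s then 420 s dissociation, 1:1 model fit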
Could you label it Yes if measured Ratio WT-kd/clone-kd is 1 or higher, and No otherwise?

TB640_005 Fab-SASA VH-L112M (Fab, V domains shown, not shown: SASA tag then His-tag) VH: EVQLVESGGDLVKPGGSLRLSCVASGFTFRDYAMTWVRQAPGKGLQWVSLISGSGGKTYYADAVKGRFTISRDNAKNTLYLQMNSLRAEDTAVYYCAVDRLTKTIRPQYYGMWVWGQGTLVTVSS VL: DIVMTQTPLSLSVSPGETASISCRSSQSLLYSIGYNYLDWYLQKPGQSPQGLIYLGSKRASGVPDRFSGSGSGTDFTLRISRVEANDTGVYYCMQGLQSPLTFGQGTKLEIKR
Yes
TB640_005 Fab-SASA VL-T102G (Fab, V domains shown, not shown: SASA tag then His-tag) VH: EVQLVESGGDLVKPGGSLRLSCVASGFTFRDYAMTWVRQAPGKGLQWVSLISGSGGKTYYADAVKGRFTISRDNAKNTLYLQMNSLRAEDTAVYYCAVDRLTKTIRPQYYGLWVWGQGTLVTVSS VL: DIVMTQTPLSLSVSPGETASISCRSSQSLLYSIGYNYLDWYLQKPGQSPQGLIYLGSKRASGVPDRFSGSGSGTDFTLRISRVEANDTGVYYCMQGLQSPLGFGQGTKLEIKR
Yes
TB640_005 Fab-SASA VL-T102S (Fab, V domains shown, not shown: SASA tag then His-tag) VH: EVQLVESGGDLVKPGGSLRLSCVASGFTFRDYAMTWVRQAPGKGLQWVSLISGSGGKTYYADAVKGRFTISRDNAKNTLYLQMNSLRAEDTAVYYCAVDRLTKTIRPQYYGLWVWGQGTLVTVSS VL: DIVMTQTPLSLSVSPGETASISCRSSQSLLYSIGYNYLDWYLQKPGQSPQGLIYLGSKRASGVPDRFSGSGSGTDFTLRISRVEANDTGVYYCMQGLQSPLSFGQGTKLEIKR
Yes
TB640_005 Fab-SASA VH-L101M (Fab, V domains shown, not shown: SASA tag then His-tag) VH: EVQLVESGGDLVKPGGSLRLSCVASGFTFRDYAMTWVRQAPGKGLQWVSLISGSGGKTYYADAVKGRFTISRDNAKNTLYLQMNSLRAEDTAVYYCAVDRMTKTIRPQYYGLWVWGQGTLVTVSS VL: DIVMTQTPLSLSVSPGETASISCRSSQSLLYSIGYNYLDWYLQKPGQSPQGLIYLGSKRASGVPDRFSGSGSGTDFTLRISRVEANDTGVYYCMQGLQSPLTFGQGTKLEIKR
Yes

Consider the additional binder presented here.
Threshold query (Ratio WT-kd/clone-kd >= 1) on TB640_005 Fab-SASA VL-S57T (Fab, V domains shown, not shown: SASA tag then His-tag) VH: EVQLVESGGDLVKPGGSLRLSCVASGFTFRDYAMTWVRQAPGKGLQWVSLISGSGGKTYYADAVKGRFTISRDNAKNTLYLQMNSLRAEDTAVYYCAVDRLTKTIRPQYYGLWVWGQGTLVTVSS VL: DIVMTQTPLSLSVSPGETASISCRSSQSLLYSIGYNYLDWYLQKPGQSPQGLIYLGTKRASGVPDRFSGSGSGTDFTLRISRVEANDTGVYYCMQGLQSPLTFGQGTKLEIKR
No
